assay: Inhibition of HIV1 His6-tagged integrase-recombinant flag-tagged LEDGF/p75 interaction at 100 uM after 1 hr by alphascreen assay
recorded_metric: inhibition (%)

[[record]]
given_smiles = "Cc1cccc(C)c1Cn1cc(C(=O)/C=C(\\O)C(=O)O)c2c(O)cccc21"
recorded_number = 72

[[record]]
given_smiles = "Cc1cc(C)cc(Cn2cc(C(=O)C3=C(O)C(=O)OC3)c3c(O)cccc32)c1"
recorded_number = 69

[[record]]
given_smiles = "O=C(O)/C(O)=C/C(=O)c1cn(Cc2ccc(F)cc2)c2cccc(O)c12"
recorded_number = 56

[[record]]
given_smiles = "Cc1cc(C)cc(Cn2cc(C(=O)/C=C(\\O)C(=O)O)c3c(O)cccc32)c1"
recorded_number = 94

[[record]]
given_smiles = "Cc1ccc(Cn2cc(C(=O)/C=C(\\O)C(=O)O)c3c(O)cccc32)cc1"
recorded_number = 86

[[record]]
given_smiles = "CCOC(=O)/C(O)=C/C(=O)c1cn(Cc2cccc(C)c2)c2cccc(O)c12"
recorded_number = 45

[[record]]
given_smiles = "CCOC(=O)/C(O)=C/C(=O)c1cn(Cc2cccc(C)c2C)c2cccc(O)c12"
recorded_number = 57

[[record]]
given_smiles = "Cc1ccc(C)c(Cn2cc(C(=O)/C=C(\\O)C(=O)O)c3c(O)cccc32)c1"
recorded_number = 40

[[record]]
given_smiles = "Cc1ccccc1Cn1cc(C(=O)C2=C(O)C(=O)OC2)c2c(O)cccc21"
recorded_number = 34

[[record]]
given_smiles = "Cc1cccc(Cn2cc(C(=O)C3=C(O)C(=O)OC3)c3c(O)cccc32)c1C"
recorded_number = 70

[[record]]
given_smiles = "Cc1cccc(Cn2cc(C(=O)/C=C(\\O)C(=O)O)c3c(O)cccc32)c1"
recorded_number = 16

[[record]]
given_smiles = "CCOC(=O)/C(O)=C/C(=O)c1cn(Cc2cc(C)ccc2C)c2cccc(O)c12"
recorded_number = 33

[[record]]
given_smiles = "Cc1cccc(C)c1Cn1cc(C(=O)C2=C(O)C(=O)OC2)c2c(O)cccc21"
recorded_number = 70

[[record]]
given_smiles = "CCOC(=O)/C(O)=C/C(=O)c1cn(Cc2ccccc2C)c2cccc(O)c12"
recorded_number = 24

[[record]]
given_smiles = "Cc1ccc(Cn2cc(C(=O)/C=C(\\O)C(=O)O)c3c(O)cccc32)c(C)c1"
recorded_number = 55

[[record]]
given_smiles = "CCOC(=O)/C(O)=C/C(=O)c1cn(Cc2ccc(C)cc2)c2cccc(O)c12"
recorded_number = 60

[[record]]
given_smiles = "Cc1cccc(Cn2cc(C(=O)/C=C(\\O)C(=O)O)c3c(O)cccc32)c1C"
recorded_number = 93

